Target: HTRA1-1 (human)
Sequence (chain, as listed by the source): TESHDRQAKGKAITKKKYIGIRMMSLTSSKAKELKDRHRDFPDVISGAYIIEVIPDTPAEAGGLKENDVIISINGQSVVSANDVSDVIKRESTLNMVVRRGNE
Test: FP; competitive FP with fRSK1 tracer
Where no end group is shown, it is not given here. The star is where a group is joined. Biotin = O=C1N[C@H]2[C@H](CS[C@H]2CCCCC(=O)*)N1; TTDS = NCCCOCCOCCOCCCNC(=O)CCC(=O)*
property measured: Kd (µM)
A number alone suffices; assume µM.

// query Kd for {Biotin-TTDS}-DEDQHTQITKV [PTEN_11] ?
// result 45.1
